Field: TGI. Provide a value for each of the molecules that follow.
# Tested on: NCI-H460 lung
# Assay protocol: NCI tumour cell line growth inhibition, 48 h

Problem: Hello, please tell me recorded TGI for this one: "C1=NCCOCCN=Cc2ccccc2OCc2cccc(n2)COc2ccccc21"
Solution: > 25 µM

Problem: Provide measured TGI value, entry: "O=c1[nH]cc(OCC(F)(F)F)c(=O)[nH]1"
Solution: > 100 µM

Problem: Quote TGI reported for "COc1ccc(-c2ccc(/C=N/n3c(COc4ccc(Cl)cc4)n[nH]c3=S)o2)c([N+](=O)[O-])c1" please.
Solution: 32.8 µM

Problem: Supply recorded TGI for C/C(=N\NC(N)=O)C(CN(C)C)C(c1ccccc1)c1c(O)c2ccccc2oc1=O (centres undefined) here.
Solution: > 100 µM

Problem: # return recorded TGI for input "CSc1c(C(=O)Nc2ccc(Cl)cc2)c(N)[nH]c(=O)c1C#N"
Solution: > 100 µM

Problem: Note TGI for the molecule shown: "CN(C)c1ccc(/C=C/c2cc[n+](C)c3ccccc23)cc1"
Solution: 14.3 µM

Problem: Name the recorded TGI of the molecule listed here: "CN(N)/N=N/c1nc[nH]c1C(N)=O"
Solution: > 71.5 µM

Problem: State its TGI: CN1C(=O)C(O)CC1c1cccc(F)c1 (centres undefined)
Solution: > 100 µM

Problem: Please give the documented TGI of "O=C1c2ccccc2C(=O)C1C(c1ccc([N+](=O)[O-])cc1)C1C(=O)c2ccccc2C1=O"
Solution: > 100 µM

* * *

# System: NCI-H522 lung
# Assay protocol: NCI tumour cell line growth inhibition, 48 h
Property measured: TGI

Problem: Retrieve TGI measured for "CN(C)c1ccc(C(N)=O)cn1" and print it.
Solution: > 100 µM

Problem: Determine its reported TGI: "C[C@H](CS(C)(=O)=O)Nc1ncc2cc(Oc3ccc(F)cc3F)c(=O)n(C)c2n1"
Solution: > 25 µM

Problem: Name the recorded TGI of the item CC(Oc1ccc(OCC2CCCCC2)cc1)C(=O)N(CCO)CCO (stereo not drawn) in your answer.
Solution: > 100 µM

* * *

# System: HCC-2998 colon
# Assay protocol: NCI tumour cell line growth inhibition, 48 h
Answer each item with its documented TGI.

Problem: Identify measured TGI associated with "Cn1cc(-c2ccc3c(c2)CCN3C(=O)Cc2cccc(C(F)(F)F)c2)c2c(N)ncnc21"
Solution: 28.4 µM

Problem: Kindly indicate its recorded TGI. Item: "Cc1ccc(NC(=O)CC(=O)n2nc(C)c(N=Nc3ccc(S(=O)(=O)CCOS(=O)(=O)O)cc3)c2C)cc1"
Solution: > 100 µM

Problem: Given O=C(Cc1ccccc1)N/N=C(\C1=Nc2ccc([N+](=O)[O-])cc2NC1O)C(O)c1ccc([N+](=O)[O-])cc1 (configuration not stated) , respond with its TGI.
Solution: > 100 µM

Problem: Item CCO[C@@H]1C2C=CC(C2)[C@H]1[N+](=O)[O-] (some centres not stated) : provide TGI
Solution: > 100 µM

Problem: Return TGI (reported value) for this compound: O=C(O)CCC1CCc2cccc3occ1c23 (configuration not stated)
Solution: > 100 µM

Problem: Given the compound O=c1[nH]cnc2c(C3OC(CO)C(O)C3O)scc12 (configuration not stated) , write its reported TGI.
Solution: > 100 µM

Problem: Provide one value: measured TGI of "Fc1ccc(Nc2nccc(-c3c(-c4ccc(C(F)(F)F)cc4)nn4ncccc34)n2)cc1F"
Solution: > 25 µM
